- MEASUREMENT PROTOCOL: yeast display, Sf9 membrane polyspecificity reagent, FACS + sequencing; frameworks hold sequencing errors
OBSERVATION TYPE: polyreactivity (PSR sort gate)

CONSTRUCT SEQUENCE	OBSERVATION TYPE	RESULT
QVQLVESGGGLVQAGGSLRLSCAASGRTFTRYAMGWYRQAPGKERELVAAISGGGGSTYYADSVKGRFTISRDNAKNTVYLQMNSLKPEDTAVYYCAADVTYGTKWAYDYWGQGTQVTVSS	polyreactivity (PSR sort gate)	high polyreactivity
QVQLVESGGGLVQAGGSLRLSCAASGRTLSRYTMGWYRQAPGKERELVAAISTSGSTYYADSVKGRFTISRDNAKNTVYFQMNSLKPEDTAVYYCNAVRRFLQYATGYDYWRQGTQVTVSS	polyreactivity (PSR sort gate)	high polyreactivity
QVQLVESGGGLVQAGGSLRLICAASGGIIYYYAMGWYRQAPGKERELVAGITSAGSTYYADSVKGRFTISRDNAKNTVYLQMNSLKPEDTAVYYCKDAWPGYYWYYDDDYWGQGTQVTVSS	polyreactivity (PSR sort gate)	low polyreactivity
QVQLVESGGGLVQAGGSLRLSCAASGFTIYNNAMGWYRQAPGKERELVAGITSGGDSTNYADSVKGRFTISRDNAKNTVYLQMNRLKPEDTAVYYCAAEGGTNTPGVVESDYWGQGTQVTVSS	polyreactivity (PSR sort gate)	low polyreactivity
QVQLVESGGGLVQAGGSLRLTCAASGRISKIYAMGWYRQAPGKERELVAAINSGGSTNYADSVKGRFTISRDNAKNTVYLQMNSLKPEDTAVYYCAATFKSGMDFWGQGTQVTVSS	polyreactivity (PSR sort gate)	high polyreactivity
